Listing of entries alongside the reported apparent KD of MS2 coat protein.
- System: MS2 coat protein
- Assay Comment: apparent KD of MS2 coat protein; designed switch direction (-1 OFF switch, 1 ON switch): -1; higher = weaker reporter binding
- Condition Details: Eterna round: R95; input ligand: FMN 200 uM
The answer consists of two parts: a number and, after it, its unit.

Recorded apparent KD of MS2 coat protein, per entry:
UCGAGGUCAGGAUAUACAUGAGGAUCACCCAUGUGGAUGUAAGGUAGGAGAAGAGUAGGUAGAAGGGACGAGAG [JR_Exclu3_Sub049] (puzzle: Exclusion 3)
46.7 nM
CUGAGGUAGCGGUCCUAUGACAUGAGGAUCACCCAUGUACCUUGCUUUGAGCUUUUAGCUCGUCUUAUGAUUCUCGG [Mat - Sensor v3 - turn-off var 1 - JL Mod - D43] (puzzle: Sensor v3, turn-off variant 1)
271 nM

Here's the next entry for you.
**Q:** What measured apparent KD of MS2 coat protein goes with GUGGAACAUGAGGAUCACCCAUGUGAGGAUAUGUGUGAAUAGAGGAGAAGAAGAGAGAACAGAAGGCACGGAGG [JR_Exclu1_Sub066] (puzzle: Exclusion 1) ?
**A:** 53.3 nM
